MEASURED ON: human μ-opiate receptor (Homo sapiens, UniProt P35372)
Sequence (P35372 whole entry): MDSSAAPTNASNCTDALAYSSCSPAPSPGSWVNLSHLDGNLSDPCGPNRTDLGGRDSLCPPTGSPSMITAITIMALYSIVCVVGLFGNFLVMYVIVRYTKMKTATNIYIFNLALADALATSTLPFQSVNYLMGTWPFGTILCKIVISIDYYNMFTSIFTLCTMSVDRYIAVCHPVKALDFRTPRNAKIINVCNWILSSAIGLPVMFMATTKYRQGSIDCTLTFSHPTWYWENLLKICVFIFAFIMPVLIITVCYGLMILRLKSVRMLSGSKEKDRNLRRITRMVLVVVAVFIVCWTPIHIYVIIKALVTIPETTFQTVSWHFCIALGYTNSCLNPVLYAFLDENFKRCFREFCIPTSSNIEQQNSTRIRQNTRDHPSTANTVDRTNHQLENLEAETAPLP
EXPERIMENT DESCRIPTION: Affinity for the human μ-opiate receptor ([3H]-naloxone displacement, SPA, CHO-K1 membrane preparation)
Format: binding
CONDITIONS: read-out: μ-Opioid receptor, % inhibition [1 μM]
# if value of inhibition at 1 µM reaches 80%, tag 1.0; if it stays below, tag 0.0

Dear colleague, could you confirm whether CN(C)C(c1cccs1)C1CCC(NC(=O)c2cccnc2Sc2ccc(Cl)cc2)CC1 (stereo not shown) has inhibition at 1 µM at or above 80%?
1.0

Dear colleague, could you confirm whether CN(C)C(c1cccs1)C1CCC(CCNC(=O)c2ccccc2Cl)CC1 (stereo not shown) has inhibition at 1 µM at or above 80%?
1.0

Dear colleague, could you confirm whether CN(C)C(c1ccccc1)C1CCC(NC(=O)c2csc(-c3ccccc3)n2)CC1 (stereo not shown) has inhibition at 1 µM at or above 80%?
1.0

Dear colleague, could you confirm whether Cc1oc(-c2ccc(Cl)cc2)cc1C(=O)NC1CCC(C(c2cccc(F)c2)N(C)C)CC1 (stereo not shown) has inhibition at 1 µM at or above 80%?
0.0

Dear colleague, could you confirm whether CN(C)C(CCc1ccccc1)C1CCC(CNC(=O)c2csc3ccccc23)CC1 (stereo not shown) has inhibition at 1 µM at or above 80%?
1.0

---
Dear colleague, could you confirm whether Cc1oc(-c2ccccc2)cc1C(=O)NC1CCC(C(c2ccccc2)N(C)C)CC1 (stereo not shown) has inhibition at 1 µM at or above 80%?
1.0

Dear colleague, could you confirm whether Cc1ccccc1C(=O)NCCC1CCC(C(c2cccc(F)c2)N(C)C)CC1 (stereo not shown) has inhibition at 1 µM at or above 80%?
1.0

Dear colleague, could you confirm whether CN(C)C(c1cccc(F)c1)C1CCC(CCNC(=O)c2ccccc2Br)CC1 (stereo not shown) has inhibition at 1 µM at or above 80%?
1.0

Dear colleague, could you confirm whether CCC(C(=O)NC1CCC(C(c2ccccc2)N(C)C)CC1)c1ccccc1 (single isomer, unassigned) has inhibition at 1 µM at or above 80%?
1.0

Dear colleague, could you confirm whether CN(C)C(c1cccs1)C1CCC(CCNC(=O)c2cc(F)c(Cl)cc2Cl)CC1 (stereo not shown) has inhibition at 1 µM at or above 80%?
1.0

Dear colleague, could you confirm whether COc1c(C(=O)NCCC2CCC(C(CCc3ccccc3)N(C)C)CC2)csc1Cl (stereo not shown) has inhibition at 1 µM at or above 80%?
1.0

Dear colleague, could you confirm whether CN(C)C(c1ccc(F)cc1)C1CCC(NC(=O)c2ccc(F)c(Cl)c2)CC1 (stereo not shown) has inhibition at 1 µM at or above 80%?
0.0

Dear colleague, could you confirm whether CN(C)C(c1cccc(F)c1)C1CCC(NC(=O)c2c(F)cccc2F)CC1 (stereo not shown) has inhibition at 1 µM at or above 80%?
0.0

Dear colleague, could you confirm whether Cc1ccccc1C(=O)NCCC1CCC(C(c2ccccc2)N(C)C)CC1 (single isomer, unassigned) has inhibition at 1 µM at or above 80%?
1.0

Dear colleague, could you confirm whether CN(C)C(c1ccccc1)C1CCC(NC(=O)c2cccc(Br)c2)CC1 (stereo not shown) has inhibition at 1 µM at or above 80%?
1.0

Dear colleague, could you confirm whether CC(C)S(=O)(=O)c1csc(C(=O)NC2CCC(C(c3cccs3)N(C)C)CC2)c1Cl (stereo not shown) has inhibition at 1 µM at or above 80%?
1.0

Origin of measurements: patent US8058475B2
